# assayed-system: H1047R PIK3CA enzyme (Homo sapiens, UniProt P42336, H1047R)
# Sequence (P42336 whole entry H1047R): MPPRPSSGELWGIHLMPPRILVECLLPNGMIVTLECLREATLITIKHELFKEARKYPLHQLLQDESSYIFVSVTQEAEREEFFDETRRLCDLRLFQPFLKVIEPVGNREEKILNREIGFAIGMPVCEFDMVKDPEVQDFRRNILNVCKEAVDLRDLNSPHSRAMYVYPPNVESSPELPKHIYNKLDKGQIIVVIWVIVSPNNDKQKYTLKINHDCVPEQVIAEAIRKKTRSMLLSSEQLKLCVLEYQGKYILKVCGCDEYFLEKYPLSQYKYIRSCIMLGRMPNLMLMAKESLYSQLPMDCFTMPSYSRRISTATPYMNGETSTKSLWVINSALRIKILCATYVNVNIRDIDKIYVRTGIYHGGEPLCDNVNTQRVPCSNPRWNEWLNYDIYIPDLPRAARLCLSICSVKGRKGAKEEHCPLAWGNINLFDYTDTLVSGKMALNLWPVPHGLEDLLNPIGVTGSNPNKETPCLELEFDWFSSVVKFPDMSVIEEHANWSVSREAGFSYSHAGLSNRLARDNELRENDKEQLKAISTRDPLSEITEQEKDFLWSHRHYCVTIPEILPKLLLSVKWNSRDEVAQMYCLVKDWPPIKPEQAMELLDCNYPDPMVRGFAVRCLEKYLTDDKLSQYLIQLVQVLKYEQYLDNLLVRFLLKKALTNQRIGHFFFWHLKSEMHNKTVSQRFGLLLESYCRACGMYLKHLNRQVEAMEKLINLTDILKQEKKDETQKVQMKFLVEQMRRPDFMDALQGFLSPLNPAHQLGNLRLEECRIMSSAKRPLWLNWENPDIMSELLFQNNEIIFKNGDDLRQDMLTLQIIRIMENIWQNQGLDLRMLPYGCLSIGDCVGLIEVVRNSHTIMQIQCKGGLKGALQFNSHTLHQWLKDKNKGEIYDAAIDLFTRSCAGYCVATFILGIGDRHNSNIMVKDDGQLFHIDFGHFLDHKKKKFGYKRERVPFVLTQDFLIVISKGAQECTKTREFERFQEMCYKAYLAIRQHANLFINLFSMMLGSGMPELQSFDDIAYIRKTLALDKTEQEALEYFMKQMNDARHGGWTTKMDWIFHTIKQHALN
# Sequence (P27986 whole entry partner): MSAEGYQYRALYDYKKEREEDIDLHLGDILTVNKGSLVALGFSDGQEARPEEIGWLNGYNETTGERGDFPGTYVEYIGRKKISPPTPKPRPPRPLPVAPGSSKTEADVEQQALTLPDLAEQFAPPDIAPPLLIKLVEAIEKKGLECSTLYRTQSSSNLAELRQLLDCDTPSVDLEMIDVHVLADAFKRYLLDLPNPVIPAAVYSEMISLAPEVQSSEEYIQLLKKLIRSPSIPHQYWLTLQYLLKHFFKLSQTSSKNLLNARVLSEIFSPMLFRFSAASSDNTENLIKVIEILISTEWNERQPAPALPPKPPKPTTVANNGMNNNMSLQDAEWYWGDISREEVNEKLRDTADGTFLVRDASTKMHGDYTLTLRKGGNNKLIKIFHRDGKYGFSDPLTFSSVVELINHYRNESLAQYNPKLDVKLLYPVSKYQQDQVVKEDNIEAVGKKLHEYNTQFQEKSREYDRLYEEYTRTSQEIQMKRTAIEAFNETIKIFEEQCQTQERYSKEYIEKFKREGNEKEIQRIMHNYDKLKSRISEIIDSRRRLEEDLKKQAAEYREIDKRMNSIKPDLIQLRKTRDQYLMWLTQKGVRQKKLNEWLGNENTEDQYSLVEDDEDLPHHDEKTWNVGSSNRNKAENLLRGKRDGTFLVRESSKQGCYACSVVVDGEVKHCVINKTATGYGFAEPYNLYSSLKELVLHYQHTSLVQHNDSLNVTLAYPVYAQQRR
# assay-remarks: ADP-Glo Biochemical PIK3CA Kinase Assay
Provide the reported IC50 of each item.

Study these solved cases before continuing.
• O=C(Nc1cccc2c1[C@@H](CC1CCCCC1)NC2=O)c1cc(F)cc(C(F)(F)F)c1 [Compound I-2057] = 1000 to 10000 nM
• CC(C)(C)C1CCCN1C(=O)Nc1cccc2c1C(c1cc(F)ccc1Cl)NC2=O (single isomer, unassigned) [Compound I-2432] = 500 to 1000 nM
• CN(C)c1nc2cc(-c3cc(NC(=O)c4cc(F)cc(C(F)(F)F)c4)c4c(c3)C(=O)NC4c3cc(F)ccc3Cl)ccn2n1 (stereo not drawn) [Compound I-2200] = ≤ 100 nM
• O=C1N[C@@H](c2cc(F)ccc2Cl)c2c(NC(=O)N3C[C@H](O)c4cccc(F)c43)cccc21 (single isomer, unassigned) [Compound I-2209] = 10000 to 100000 nM
• O=C(Nc1cc(N2CCn3cncc3C2)cc2c1C(c1cc(F)ccc1Cl)NC2=O)c1cc(F)cc(C(F)(F)F)c1 (stereo not drawn) [Compound I-1237] = ≤ 100 nM

Then there is this molecule:
Inquiry: Recorded IC50 of O=C(Nc1cccc2c1C(c1cc(F)ccc1Cl)NC2=O)c1cc(Br)cc(C(F)(F)F)c1 (stereo not drawn) [Compound I-447] , please.
Reply text: 1000 to 10000 nM

====

# assayed-system: H1047R PIK3CA enzyme (Homo sapiens, UniProt P42336, H1047R)
# assay-remarks: ADP-Glo Biochemical PIK3CA Kinase Assay
# Experimental: Compounds to be assayed were plated in 16 doses of 1:2 serial dilutions (20 nL volume each well) on a 1536-well plate, and the plate warmed to room temperature. […] To the well was added 1 μL of 200 μM ATP and 20 μM of diC8-PIP2 in Substrate Assay Buffer (50 mM HEPES pH7.4, 50 mM NaCl, 5 mM DTT and 0.03% CHAPS) to start the reaction, and the plate was shaken for 10 seconds, then spun briefly at 1500 rpm, and then incubated for 60 minutes at room temperature. […]
pIC50: −log10 of the molar value.
measured-quantity: pIC50

Study these solved cases before continuing.
- O=C(Nc1cc(O)cc2c1C(c1cc(F)ccc1Cl)NC2=O)c1cc(F)cc(Cl)c1 (stereo not shown): ≥ 7.00
- O=C(Nc1cc(C2CNCCS2(=O)=O)cc2c1C(c1cc(F)ccc1Cl)NC2=O)c1cc(F)cc(C(F)(F)F)c1 (racemic): ≥ 7.00
- O=C1NC(c2cc(F)ccc2Cl)c2c(NC(=O)n3ncc4ccccc43)cccc21 (stereo not shown): 6.30 to 7.00
- O=C(Nc1cc(Br)cc2c1C(c1cc(F)ccc1Cl)NC2=O)c1cc(F)cc(C(F)F)c1 (stereo not shown): 6.30 to 7.00
- CCn1cc(-c2cc(NC(=O)c3cc(F)cc(C(F)(F)F)c3)c3c(c2)C(=O)NC3c2cc(F)ccc2Cl)ccc1=O (stereo not shown): ≥ 7.00
- NC(=O)Cn1cc(-c2cc(NC(=O)c3cc(F)cc(C(F)(F)F)c3)c3c(c2)C(=O)NC3c2cc(F)ccc2Cl)cn1 (stereo not shown): ≥ 7.00

Then there is this compound:
Inquiry: Recorded pIC50 of O=C(Nc1cc(CC2(O)CCC2)cc2c1C(c1cc(F)ccc1Cl)NC2=O)c1cc(F)cc(C(F)(F)F)c1 (stereo not shown) , please.
Reply text: ≥ 7.00

====

Provide the reported pIC50 of each item.
# assayed-system: H1047R PIK3CA enzyme (Homo sapiens, UniProt P42336, H1047R)
# assay-remarks: ADP-Glo Biochemical PIK3CA Kinase Assay
pIC50: −log10 of the molar value.

Study these solved cases before continuing.
* CS(=O)(=O)Cc1cc(NC(=O)c2cc(F)cc(C(F)(F)F)c2)c2c(c1)C(=O)NC2c1cc(F)ccc1Cl (stereo not shown) [Compound I-310] | ≥ 7.00
* Cn1nccc1-c1cc(NC(=O)c2cc(F)cc(C(F)(F)F)c2)c2c(c1)C(=O)N[C@H]2c1cc(F)ccc1Cl [Compound I-1136] | ≥ 7.00
* O=C(Nc1cc(N2CCn3cnnc3C2)cc2c1C(c1cc(F)ccc1Cl)NC2=O)c1cc(F)cc(C(F)(F)F)c1 (stereo not shown) [Compound I-1354] | ≥ 7.00
* Nc1nc2ccc(-c3cc(NC(=O)c4cc(F)cc(C(F)(F)F)c4)c4c(c3)C(=O)N[C@H]4c3cc(F)ccc3Cl)cn2n1 [Compound I-1445] | ≥ 7.00
* Cc1ccccc1[C@H]1NC(=O)c2nccc(NC(=O)N3CCc4ccccc43)c21 [Compound I-228] | 4.00 to 5.00
* Cn1ccc(Nc2cc(NC(=O)c3cc(F)cc(C(F)(F)F)c3)c3c(c2)C(=O)N[C@@H]3c2cc(F)ccc2Cl)n1 [Compound I-1072] | 6.00 to 6.30

Look up pIC50 for the entries below, preserving their order.
1. N[C@H]1CCC[C@H](C(=O)Nc2cc(-c3ccc4ncnn4c3)cc3c2C(c2cc(F)ccc2Cl)NC3=O)C1 (mixture of isomers) [Compound I-1845]
2. N#CCCc1cc(NC(=O)N2C[C@@H](O)c3cc(F)ccc32)c2c(c1)C(=O)N[C@H]2c1cc(F)ccc1Cl (single isomer, unassigned) [Compound I-2347]

Reply text:
1. 4.00 to 5.00
2. 6.30 to 7.00

Look up pIC50 for the entries below, preserving their order.
1. Cc1ccccc1C1NC(=O)c2cncc(NC(=O)c3cc(F)cc(C(F)(F)F)c3)c21 (stereo not shown) [Compound I-233]
2. O=C1N[C@H](c2cc(F)ccc2Cl)c2c(NC(=O)N3C[C@@H](O)c4c3ccc(F)c4F)cccc21 (single isomer, unassigned) [Compound I-2311]
3. O=C(Nc1cc(-c2cnc3nccn3c2)cc2c1[C@@H](c1cc(F)ccc1Cl)NC2=O)c1cc(F)cc(C(F)(F)F)c1 [Compound I-883]
4. Cn1cc(-c2cc(NC(=O)c3cc(F)cc(C(F)(F)F)c3)c3c(n2)C(=O)N[C@H]3c2cc(F)ccc2Cl)cn1 [Compound I-187]
5. Nc1nc2cc(-c3cc(NC(=O)c4cc(F)cc(C(F)(F)F)c4)c4c(c3)C(=O)N[C@@H]4c3cc(F)ccc3Cl)ccn2n1 [Compound I-1446]

Reply text:
6.30 to 7.00
5.00 to 6.00
5.00 to 6.00
≥ 7.00
≥ 7.00

Look up pIC50 for the entries below, preserving their order.
1. N#CCOc1cc(NC(=O)c2cc(F)cc(C(F)(F)F)c2)c2c(c1)C(=O)N[C@@H]2c1cc(F)ccc1Cl [Compound I-1887]
2. C/S(Cc1cc(NC(=O)c2cc(F)cc(C(F)(F)F)c2)c2c(c1)C(=O)NC2c1cc(F)ccc1Cl)=N\C#N (stereo not shown) [Compound I-1494]
3. O=C1N[C@@H](c2cc(F)ccc2Cl)c2c(NC(=O)N3C[C@H](O)c4cc(F)c(F)cc43)cccc21 (single isomer, unassigned) [Compound I-2291]
4. CC[C@H](CC(=O)Nc1cccc2c1[C@@H](c1cc(F)ccc1Cl)NC2=O)[C@@H](C)C(F)(F)F (single isomer, unassigned) [Compound I-2338]
5. O=C(Nc1cc(-c2cn3c(F)cnc3cn2)cc2c1[C@H](c1cc(F)ccc1Cl)NC2=O)c1cc(F)cc(C(F)(F)F)c1 [Compound I-1878]
6. O=C(Nc1cc(-c2cn3ccnc3cn2)cc2c1[C@H](c1cc(F)ccc1Cl)NC2=O)c1cc(F)cc(C(F)(F)F)c1 [Compound I-1330]
7. O=C1NC(c2cc(F)ccc2Cl)c2c1cc(-c1ccc3ncnn3c1)cc2N1CCn2cnnc2C1 (stereo not shown) [Compound I-2019]

Reply text:
6.00 to 6.30
≥ 7.00
5.00 to 6.00
4.00 to 5.00
≥ 7.00
≥ 7.00
4.00 to 5.00

Look up pIC50 for the entries below, preserving their order.
1. O=C(Nc1cc(Br)cc2c1C(c1cc(F)ccc1Cl)NC2=O)c1cccc(C2CC2)c1 (stereo not shown) [Compound I-569]
2. Cc1cc(-c2cc(NC(=O)c3cc(F)cc(C(F)(F)F)c3)c3c(c2)C(=O)NC3c2cc(F)ccc2Cl)cc2cnn(C)c12 (stereo not shown) [Compound I-927]

Reply text:
1: 5.00 to 6.00; 2: 6.30 to 7.00

====

# assayed-system: H1047R PIK3CA enzyme (Homo sapiens, UniProt P42336, H1047R)
# assay-remarks: ADP-Glo Biochemical PIK3CA Kinase Assay
Provide the reported IC50 of each item.

Study these solved cases before continuing.
- O=C1N[C@@H](c2cc(F)ccc2Cl)c2c(NC(=O)N3C[C@@H](O)c4c3ccc(F)c4F)cccc21 (single isomer, unassigned) [Compound I-2313]: 1 to 10 µM
- O=C(Nc1cccc2c1C(c1cccc(C3CC3)c1)NC2=O)c1cc(F)cc(C(F)(F)F)c1 (stereo not drawn) [Compound I-718]: 10 to 100 µM

Inquiry: Recorded IC50 of O=C1N[C@H](c2ccccc2Cl)c2c(NC(=O)N3C[C@](O)(C(F)(F)F)c4cc(F)ccc43)cccc21 (single isomer, unassigned) [Compound I-2687] , please.
Reply text: 1 to 10 µM
